Biological target: T1, P7-AA
T1 chain: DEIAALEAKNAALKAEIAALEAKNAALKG
Assay: two-hybrid library CCmax;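 further: natural log of median RNA to DNA barcode read ratio; higher means stronger binding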
Conditions: mean of both orientations
Consider the following binders; for each one, report its interaction score.
One number for each entry.

Worked cases, answers included:
binder	interaction score
DKIAALKAKNAALKAKNAALKAKIAALKG [P2-AA]	-1.47
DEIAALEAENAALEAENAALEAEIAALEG [P1-AA]	-1.7
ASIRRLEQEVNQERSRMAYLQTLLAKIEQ [4H_BCR]	-1.28
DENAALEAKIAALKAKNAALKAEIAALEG [4H1401-AA]	-1.39

// switching to the query binder
Ask | Entry DELAAIEAELAAEEAENAALEAEAAALEG [AP1-AA] needs its interaction score filled in; supply it.
Reply | -1.65

// provenance: paper PMC10397247
